- assay_info: Fluorescence assay for glutathione: Kd from absorption/fluorescence change on glutathione addition
- Format: binding
- assay_conditions: Table 1; dissociation constant for glutathione, calculated from changes in the fluorescence spectrum; pH 7.4; read-out: Kd
Entries and their pKd values follow.
Keep in mind that pKd stands for -log10 of concentration in molar terms.

Study these solved cases before continuing.
| structure_string | pKd |
| --- | --- |
| CN1CCOc2cc3c(cc21)[Si](C)(C)c1cc2c(cc1=C3c1ccccc1O)OCC[N+]=2C | 3.05 |
| CN(C)c1ccc2c(c1)[Si](C)(C)C1=CC(=[N+](C)C)C=CC1=C2c1ccccc1 | 3.05 |
| COc1ccccc1C1=C2C=CC(=[N+](C)C)C=C2[Si](C)(C)c2cc(N(C)C)ccc21 | 1.39 |

Quick check: pKd of Cc1ccccc1C1=C2C=CC(=N)C=C2[Si](C)(C)c2cc(N)ccc21 ?
2.96
